Test system: P388 leukemia ip, CD2F1 mice, survival T/C
assayExplanation: NCI In Vivo Anticancer Drug Screen. Data for tumor model P388 Leukemia (intraperitoneal) in CD2F1 (CDF1) mice
conditionInfo: endpoint: median survival time; dose: 12.5 mg/kg/injection; schedule: Q01DX009 (ip); vehicle: saline; higher = longer survival
Toxic doses and inconclusive results are not listed.
Attribute: T/C

Need T/C of CC(N)C(=O)NC(CC(=O)O)C(=O)O (stereo not given) , thanks.
95 % of control

Another compound: "c1ccc([P+](NCCN[P+](c2ccccc2)(c2ccccc2)c2ccccc2)(c2ccccc2)c2ccccc2)cc1"
100 % of control

Also need "CC(C)N=C(c1ccccc1)N1CCCCC1" , thanks.
98 % of control

Then "COc1ccc(Br)cc1-c1cc2cccc[n+]2o1" ?
101 % of control

Next: "C=COS(=O)O"
105 % of control

***
Look up T/C: "O=C(Nc1ncc([N+](=O)[O-])s1)c1cccnc1"
91 % of control

How about "CN(CO)c1nc(N(C)CO)nc(N(C)CO)n1" ?
103 % of control

Ok, now "N#Cc1cccnc1.NCCNCCN.[Br-].[Pt+4]"
100 % of control

And for "Oc1ccc(/C=N/Nc2nnc(N/N=C/c3ccc(O)cc3O)c3ccccc23)c(O)c1" ?
117 % of control

Request: "COC(=O)C(CC(=O)c1cc2c(cc1Br)OCO2)(Cc1cc(OC)c(OC)c(OC)c1I)C(=O)OC"
97 % of control

---

Tested on: P388 leukemia ip, CD2F1 mice, survival T/C
assayExplanation: NCI In Vivo Anticancer Drug Screen. Data for tumor model P388 Leukemia (intraperitoneal) in CD2F1 (CDF1) mice
conditionInfo: endpoint: median survival time; dose: 6.25 mg/kg/injection; schedule: Q01DX009 (ip); vehicle: other
Toxic doses and inconclusive results are not listed. How the source made its calls: active means survival T/C of 150% or more; inactive means T/C below 125% in these data.
Hi! Could you answer with just one of these? true (1) for active, false (0) for inactive

Check the results log: what was the call for "CC(=O)Nc1cc2nc3ccc(C)cc3oc-2c(C)c1=O" ?
false (0)

Next compound: COC(=O)C1c2cc3c(c(O)c2C(OC)CC1(C)O)C(=O)c1c(O)cc2c(c1C3=O)OC1OC2(C)C(O)C(N(C)C)C1O (centres undefined)
true (1)

Also, CCC1(O)CC(OC2CC(O)C(O)CO2)c2c(O)c3c(c(O)c2C1C(=O)OC)C(=O)c1cccc(O)c1C3=O (centres undefined) please.
false (0)

Now, please, on to the next compound.
In this assay, the call recorded for "CC(C)NC(=O)c1ccc(CBr)cc1" was what?
false (0)

---

Tested on: P388 leukemia ip, CD2F1 mice, survival T/C
assayExplanation: NCI In Vivo Anticancer Drug Screen. Data for tumor model P388 Leukemia (intraperitoneal) in CD2F1 (CDF1) mice
conditionInfo: endpoint: median survival time; dose: 15.0 mg/kg/injection; schedule: Q01DX005 (ip); vehicle: saline
Toxic doses and inconclusive results are not listed. The calls were made as follows: active = survival T/C of 150% or more; inactive = T/C below 125% in these data.
Outcome field: choose from active, inactive

Below, 4 compounds whose answers are already recorded.
Recorded test call requested for CC(=O)C1SCC[S+]1C (stereo not given)
inactive

What about "C/C(=N\NC1=NCCN1)c1cn(C2=NCCN2)nc1C" ?
inactive

Another: COc1cc(C2c3cc4c(cc3OC(C)(OC)C2C)OCO4)cc(OC)c1OC (stereo not given)
inactive

Entry to check: "COc1ccc(C[n+]2ccc3ccccc3c2)cc1"
inactive

Next compound, please.
Just curious, what result did COC(=O)C(C)NP(=O)(N1CC1)N1CC1 (stereo not given) get here?
active

---

Here, each record is paired with measured T/C data.
Tested on: P388 leukemia ip, CD2F1 mice, survival T/C
assayExplanation: NCI In Vivo Anticancer Drug Screen. Data for tumor model P388 Leukemia (intraperitoneal) in CD2F1 (CDF1) mice
conditionInfo: endpoint: median survival time; dose: 200.0 mg/kg/injection; schedule: Q01DX001 (ip); vehicle: saline; higher = longer survival
Toxic doses and inconclusive results are not listed.

Would you mind telling me what T/C value was observed for COCC1(C)CCCC2(C)C3=C(CCC(OC)C3)CCC12 (stereo not given) ?
96 % of control

Further cases:
Any idea what T/C was measured for "CN(NC=O)C(=N)N" ?
102 % of control

Note, next up: CC1(c2ccccc2)NC(=O)NC1=O (stereo not given)
115 % of control

Queued: CS(=O)(=O)OCCCCC/C=C/CCCCCCC1C=CCC1 (stereo not given)
99 % of control

Input "O=C(Nc1ccc(C(=O)Nc2cccc(C3=NCCN3)c2)cc1)Nc1ccc(C(=O)Nc2cccc(C3=NCCN3)c2)cc1"
100 % of control

# repeat for "CN(C)CCN(C)CCc1ccccn1"
102 % of control

What would you report for "C1=C(B2OCCNO2)CCCC1" ?
96 % of control

Would you kindly repeat that for "CCn1c(Cl)c(/C=N\Nc2ccc([N+](=O)[O-])cc2)c2ccccc21" ?
95 % of control

Then what about the compound "CCO/C(C)=[N+](/[O-])S(=O)(=O)c1c(C)cc(C)cc1C" ?
100 % of control

Continue with "C[P+]1(C)CCCCC1"
91 % of control

---

Reported T/C values for a set of compounds
Test system: P388 leukemia ip, CD2F1 mice, survival T/C
assayExplanation: NCI In Vivo Anticancer Drug Screen. Data for tumor model P388 Leukemia (intraperitoneal) in CD2F1 (CDF1) mice
conditionInfo: endpoint: median survival time; dose: 25.0 mg/kg/injection; schedule: Q01DX009 (ip); vehicle: other; higher = longer survival
Toxic doses and inconclusive results are not listed.

May I ask what T/C has been recorded for "COc1c2ccccc2c(OC)c2c(OC(C)=O)c3c(c(OC(C)=O)c12)CC=CC3" ?
93 % of control

# iterate: "Cc1nc(Cl)c(C)c(C(=O)O)n1"
107 % of control

Next: "CN(C)Cc1cc(O)c(CN(C)C)cc1O"
105 % of control

Another compound to check: CCC1(O)CC(OC2CC(O)C(O)CO2)c2c(O)c3c(c(O)c2C1C(=O)OC)C(=O)c1cccc(O)c1C3=O (stereo not drawn)
92 % of control

Same thing, different compound: "O=C(COc1ccc(Cl)cc1)OC(=O)COc1ccc(Cl)cc1"
110 % of control

***
Entry "O=C(/C=C\c1ccncc1)c1ccc([N+](=O)[O-])cc1" has what T/C?
103 % of control

What do you have for "COc1ccc2ccc(C=O)cc2c1OC" ?
104 % of control

And "C=c1[nH]c(=O)c(=C)[nH]c1=O" ?
90 % of control

---

Test system: P388 leukemia ip, CD2F1 mice, survival T/C
assayExplanation: NCI In Vivo Anticancer Drug Screen. Data for tumor model P388 Leukemia (intraperitoneal) in CD2F1 (CDF1) mice
conditionInfo: endpoint: median survival time; dose: 100.0 mg/kg/injection; schedule: Q01DX005 (ip); vehicle: saline with Tween-80; higher = longer survival
Toxic doses and inconclusive results are not listed.
observable: T/C

Can you share its T/C? I mean this compound: "O=C(NCCCCOc1ccccc1[N+](=O)[O-])OCc1ccccc1"
97 % of control

Others:
Requested read-out: T/C. Entry: CCC1=CC2CN3CCc4c([nH]c5ccccc45)C(C(=O)OC)(C2)C13 (stereo unspecified)
108 % of control

Queued: CC(C)(C)OC(=O)NC1CN(OCc2ccccc2)C1=O (stereo unspecified)
94 % of control

What about this compound? "COc1ccc(S(=O)(=O)N/N=C/CN(C)C)cc1"
101 % of control

How about CC(C)C1OCC(CCl)O1 (stereo unspecified) ?
100 % of control

Quick one: "Cn1c(NC(=O)C(F)(F)F)cc(=O)n(C)c1=O"
95 % of control

---

Tested on: P388 leukemia ip, CD2F1 mice, survival T/C
assayExplanation: NCI In Vivo Anticancer Drug Screen. Data for tumor model P388 Leukemia (intraperitoneal) in CD2F1 (CDF1) mice
conditionInfo: endpoint: median survival time; dose: 100.0 mg/kg/injection; schedule: Q01DX005 (ip); vehicle: Klucel (hydroxypropylcellulose) (HPC); higher = longer survival
Inconclusive results and toxic doses are left out.
Some compounds, each annotated with its measured T/C.

Use these answered entries as a reference point.
I would be grateful if you could share the reported T/C for "CC(C)Nc1nc(Cl)nc(Cl)n1" .
93 % of control

How about COC1=CC(C)C2CC3OC(=O)CC4C(C)=C(OC)C(=O)C(C2(C)C1=O)C34C (stereo unspecified) ?
101 % of control

Follow-up item: CN1C(=O)C2(OC(N)=C(O)C2=O)c2ccccc21 (stereo unspecified)
96 % of control

# iterate: "CNC(=S)P(c1ccccc1)c1ccccc1"
96 % of control

Another compound to check: "O=[N+]([O-])c1ccc(-c2nnn(CCCN3CCOCC3)c2N2CCCCC2)cc1"
107 % of control

Continuing:
What value of measured T/C is listed for "N#CC1=C(Nc2ccccc2)CCC1" ?
110 % of control

Ok, now "CC[C@]12C=CCN3CC[C@@]4(c5ccc(OC)cc5N(C)[C@H]4[C@@](O)(C(=O)OC)[C@@H]1OC(C)=O)[C@@H]32"
97 % of control
